Origin of measurements: patent US20230416329A1

Target: bovine trypsin (Bos taurus)
Sequence (P00760 24-246): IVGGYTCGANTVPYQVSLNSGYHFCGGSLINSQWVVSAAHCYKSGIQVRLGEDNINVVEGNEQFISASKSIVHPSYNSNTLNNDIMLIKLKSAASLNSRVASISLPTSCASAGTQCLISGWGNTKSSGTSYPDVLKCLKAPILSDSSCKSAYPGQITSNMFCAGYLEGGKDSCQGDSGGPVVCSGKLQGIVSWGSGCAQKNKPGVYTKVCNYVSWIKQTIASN
Assay: Trypsin inhibitory activity of peptides (BApNA hydrolysis, OD405; IC50, Ki, residual activity)
Type: biochemical
Details: peptide 1.95 μM
Experimental: The substrates N-succinyl-Ala-Ala-Pro-Phe-p-nitroaniline (AAPFpNA), Nα—Benzoyl-L-arginine-4-nitroaniline hydrochloride (BApNA) and N-succinyl-[…] (AAApNA) are used in competitive binding reaction to determine the inhibitory activities against α-chymotrypsin, bovine trypsin, and porcine pancreatic elastase, respectively. […] The concentration of the peptide was measured using optical density (OD) at 280 nm. […]
Bridge positions count the residues as written; N and C are the ends. Peptide text beside a SMILES is read from it.
List of Residual trypsin activity values.
Express it in %; write the number only.

These recorded examples may help you get a feel for the data.
Problem: Residual trypsin activity of CC[C@H](C)[C@@H]1NC(=O)[C@@H]2CCCN2C(=O)[C@@H]2CCCN2C(=O)[C@H]([C@@H](C)CC)NC(=O)[C@H](CO)NC(=O)[C@H](CCCCN)NC(=O)[C@H]([C@@H](C)O)NC(=O)[C@H](C)NC(=O)[C@H](CCCNC(=N)N)NC(=O)CNC(=O)[C@@H](N)CSSC[C@@H](C(=O)O)NC(=O)[C@H](Cc2ccccc2)NC(=O)[C@H](C)NC1=O [BT11] (H-CGRATKSIPPIAFC-OH; disulfide 1-14; N-terminus and C-terminus assumed) on bovine trypsin (Bos taurus)?
Result: 75.8

Problem: Residual trypsin activity of CC[C@H](C)[C@@H]1NC(=O)[C@@H]2CCCN2C(=O)[C@@H]2CCCN2C(=O)[C@H]([C@@H](C)CC)NC(=O)[C@H](CO)NC(=O)[C@H](CCCCN)NC(=O)[C@H]([C@@H](C)O)NC(=O)[C@H](C)NC(=O)[C@H](CO)NC(=O)CNC(=O)[C@@H](N)CSSC[C@@H](C(=O)N[C@@H](Cc2ccccc2)C(=O)N2CCC[C@H]2C(=O)N[C@@H](CC(=O)O)C(=O)O)NC1=O [BT6] (H-CGSATKSIPPICFPD-OH; disulfide 1-12; N-terminus and C-terminus assumed) on bovine trypsin (Bos taurus)?
Result: 2.8

// next item, Residual trypsin activity requested
Problem: Residual trypsin activity of CC[C@H](C)[C@@H]1NC(=O)[C@@H]2CCCN2C(=O)[C@@H]2CCCN2C(=O)[C@H]([C@@H](C)CC)NC(=O)[C@H](CO)NC(=O)[C@H](CCCCN)NC(=O)[C@H]([C@@H](C)O)NC(=O)[C@H](C)NC(=O)[C@H](C)NC(=O)CNC(=O)[C@@H](N)CSSC[C@@H](C(=O)N[C@@H](Cc2ccccc2)C(=O)N2CCC[C@H]2C(=O)N[C@@H](CC(=O)O)C(=O)O)NC1=O [BT7] (H-CGAATKSIPPICFPD-OH; disulfide 1-12; N-terminus and C-terminus assumed) on bovine trypsin (Bos taurus)?
Result: 1.5

----------
Bridge positions count the residues as written; N and C are the ends. Peptide text beside a SMILES is read from it.
pKi, α-chymotrypsin (Bos taurus): measured values
Reminder that pKi is minus the log10 of a molar concentration.

These recorded examples may help you get a feel for the data.
Problem: pKi of CC[C@H](C)[C@@H]1NC(=O)[C@H](CO)NC(=O)[C@H](CC(C)C)NC(=O)[C@H]([C@@H](C)O)NC(=O)[C@@H](NC(=O)[C@@H](N)Cc2ccccc2)CSSC[C@@H](C(=O)N[C@@H](Cc2ccc(O)cc2)C(=O)NCC(=O)O)NC(=O)[C@H](CCC(N)=O)NC(=O)[C@@H]2CCCN2C(=O)[C@@H]2CCCN2C1=O [CH19] (H-FCTLSIPPQCYG-OH; disulfide 2-10; N-terminus and C-terminus assumed) on α-chymotrypsin (Bos taurus)?
Result: 5.31

Problem: pKi of CC[C@H](C)[C@@H]1NC(=O)[C@@H]2CCCN2C(=O)[C@@H]2CCCN2C(=O)[C@H]([C@@H](C)CC)NC(=O)[C@H](CO)NC(=O)[C@H](Cc2ccccc2)NC(=O)[C@H]([C@@H](C)O)NC(=O)[C@@H](NC(=O)[C@@H](NC(=O)CN)[C@@H](C)O)CSSC[C@@H](C(=O)N[C@@H](CC(N)=O)C(=O)N2CCC[C@H]2C(=O)N[C@@H](CC(N)=O)C(=O)O)NC1=O [CH25] (H-GTCTFSIPPICNPN-OH; disulfide 3-11) on α-chymotrypsin (Bos taurus)?
Result: 6.92

Others:
Problem: pKi of CC[C@H](C)[C@@H]1NC(=O)[C@H](CO)NC(=O)[C@H](Cc2ccccc2)NC(=O)[C@H]([C@@H](C)O)NC(=O)[C@H](C)NC(=O)[C@H](CO)NC(=O)CNC(=O)[C@@H](N)CSSC[C@@H](C(=O)N[C@@H](Cc2ccc(O)cc2)C(=O)NCC(=O)O)NC(=O)[C@H](CCC(N)=O)NC(=O)[C@@H]2CCCN2C(=O)[C@@H]2CCCN2C1=O [CH13] (H-CGSATFSIPPQCYG-OH; disulfide 1-12; N-terminus and C-terminus assumed) on α-chymotrypsin (Bos taurus)?
Result: 5.61
